Each entry below lists one item and its recorded Binding affinity (RU) value.
target: acetylcholine receptor; experiment: SPR, receptor immobilized, peptide 10 uM

binder: KHCVRK [6mer-2-806]
Binding affinity (RU): 30
//
binder: KIWNRK [6mer-2-807]
Binding affinity (RU): 28
//
binder: RHTVK [5mer-775]
Binding affinity (RU): 23
//
binder: KRWFCK [6mer-1-168]
Binding affinity (RU): 131
//
binder: RMPWR [5mer-761]
Binding affinity (RU): 31
//
binder: RMKKKR [6mer-2-828]
Binding affinity (RU): 32
//
binder: KTEWK [5mer-769]
Binding affinity (RU): 32
//
binder: KRRYCK [6mer-1-161]
Binding affinity (RU): 139
